# procedure-details: Mouse PK studies of 11 (plasma)
# Type: in vivo, Female C57B16/N mice
# assay-conditions: female, C57B16/N, mouse, plasma, po; title: single 100 mg/kg dosage; 50 mg/kg^b; formulation b
# From the text: Doses were freshly prepared on the day of dosing. Vehicle compositions of each dose are listed below. […] Adjust pH with 1 N hydrochloric acid to obtain a clear solution or (b) 0.2% Tween 80/20% PEG-300 in water. Adjust pH with 1 N hydrochloric acid to obtain a clear solution Then the samples were vortexed for 30 s.
quantity: Tmax

[[record]]
molecular_string = "C[C@@H]1Cc2cc(C(N)=O)cnc2N1"
recorded_value = "15 min"

